tested on: HCT-116 colon; test: NCI tumour cell line growth inhibition, 48 h
QUANTITY_KIND: TGI

Form entry - test system: HCT-116 colon; read-out: TGI; compound: CCCCC1(N=[N+]=[N-])C(=O)c2cccc3c2N(CCC3)C1=O (stereo not given)
> 100 µM

Form entry - test system: HCT-116 colon; read-out: TGI; compound: CCSc1ncnc2c(C3OC(CO)C(O)C3O)nsc12 (stereo not given)
> 100 µM

Form entry - test system: HCT-116 colon; read-out: TGI; compound: CCOC(=O)c1c(SC(=O)c2cc(OC)c(OC)c(OC)c2)n(-c2ccccc2)c(=S)n(-c2ccccc2)c1=O
> 100 µM

Form entry - test system: HCT-116 colon; read-out: TGI; compound: CN(C(=O)C12C3C4(C(=O)O)C1(C(=O)N(C)C(C)(C)C)C1C2(C(=O)O)C3(C(=O)N(C)C(C)(C)C)C14C(=O)N(C)C(C)(C)C)C(C)(C)C (stereo not given)
> 100 µM

Form entry - test system: HCT-116 colon; read-out: TGI; compound: C[N+](C)(C)CC(=O)N/N=C(/C=C/c1ccccc1)CC1OC(=O)c2ccccc21 (stereo not given)
> 100 µM

====

test system: SNB-19 CNS; assay: NCI tumour cell line growth inhibition, 48 h
Hi there, I'd appreciate the recorded TGI for every entry that follows.

Reported TGI, compound NNC(=O)CC(=O)Nc1ccc(Cl)cc1 : ____
> 100 µM

Reported TGI, compound Cc1cc(NS(=O)(=O)c2ccc(NC(=O)c3ccc4nc5ccccc5c(Nc5ccc(S(=O)(=O)N=C(N)N)cc5)c4c3)cc2)no1 : ____
94.3 µM

Reported TGI, compound O=C(Nc1nc2ncn(CCOC(=O)c3ccccc3)c2c(=O)[nH]1)c1ccccc1 : ____
> 100 µM

Reported TGI, compound COc1ccc(/C=C2/SC(=Nc3c(C)nn(-c4ccccc4)c3N)NC2=O)cc1 : ____
> 100 µM

Reported TGI, compound C=Nc1ccc([N+](=O)[O-])cc1 : ____
> 100 µM

Reported TGI, compound N#CCCNCCN(CCN(C(=O)Nc1ccccc1)c1ccccc1)C(=O)Nc1ccccc1 : ____
> 100 µM

Reported TGI, compound COc1cc(-c2cc(-c3ccc(N(C)C)cc3)nc(N3CCC(O)CC3)c2C#N)cc(OC)c1OC : ____
23.8 µM

Reported TGI, compound O=C1NN=C(c2ccc(Cl)cc2)CC1C1C(=O)N(c2ccccc2)N=C1c1ccccc1 (stereo not given) : ____
> 100 µM

Reported TGI, compound Cc1cc(S(=O)(=O)Nc2nc3ccsc3c(=O)n2N)c(S)cc1Cl : ____
> 100 µM

Reported TGI, compound CSc1nc2ccccc2c(=O)n1/N=C1\C(=O)N(CN2CCOCC2)c2ccc(Cl)cc21 : ____
> 100 µM

Reported TGI, compound CCc1nc(N)nc(N)c1-c1ccc(Cl)cc1 : ____
> 100 µM

Reported TGI, compound CC(C)(C)c1cc(C(O)(C(=O)O)C(=O)O)cc(C(C)(C)C)c1O : ____
> 100 µM

Reported TGI, compound COC(=O)C1=CC(=O)C(C(=O)Nc2ccc(OC)cc2)C(c2ccccc2)O1 (stereo not given) : ____
42 µM

Reported TGI, compound Nn1c(Cc2ccc(Cl)cc2)n[nH]c1=O : ____
> 100 µM

Reported TGI, compound O=C(Nc1ccc(Cl)c(Cl)c1)Nc1ccc(Cl)c([N+](=O)[O-])c1 : ____
5.29 µM

====

Hi there, I'd appreciate the recorded TGI for every entry that follows.
system: SK-MEL-5 melanoma; assay: NCI tumour cell line growth inhibition, 48 h

Reported TGI, molecule C=CCOc1ccc(C2c3c([nH][nH]c3=O)CC(O)(OCC)C2C(=O)OCC)cc1OC (stereo unspecified) : ____
> 100 µM

Reported TGI, molecule CCOC(=O)c1ccc(-c2cc(C)[nH]n2)[nH]1 : ____
> 100 µM

Reported TGI, molecule COC1CC(OC2OC(CO)C(O)C(O)C2O)/C(=C\C#N)C(O)C1OC (stereo unspecified) : ____
> 100 µM

Reported TGI, molecule COC(=O)C1=C(O)C(O)=C(C(=O)OC)CC1 : ____
> 100 µM

Reported TGI, molecule O=c1[nH]nc(-c2ccccc2)c(-c2ccccc2)c1-n1nc(-c2ccccc2)c2ccccc2c1=O : ____
> 100 µM

Reported TGI, molecule COc1ccc2c(c1)OCC1(O)Cc3ccccc3OC21 (stereo unspecified) : ____
> 100 µM

====

tested on: COLO 205 colon; test: NCI tumour cell line growth inhibition, 48 h; in the data active = GI50 below about 0.43 µM; inactive = the rest
Hi there, use one of these labels in your reply, thanks! active, inactive

Kindly provide the recorded test outcome for the following molecule: Cc1cc(Cl)n2c(nc3ccccc32)c1C#N
active

Kindly provide the recorded test outcome for the following molecule: Cn1cc(-c2ccc3cc(-c4ccc(CC(=O)Nc5cc(C(C)(C)C)nn5C)cc4)cnc3c2)cn1
inactive

Kindly provide the recorded test outcome for the following molecule: COc1ccc(C(=O)CC2(O)C(=O)Nc3c(Cl)ccc(Cl)c32)cc1 (configuration not stated)
inactive

Kindly provide the recorded test outcome for the following molecule: COc1ccc(NC(=O)c2ccc(NC3=C(Cl)C(=O)N(Cc4ccccc4)C3=O)cc2)cc1
inactive

Kindly provide the recorded test outcome for the following molecule: Cc1cc(O)c2c(c1)C[C@@H](O)C1=C2C(=O)c2c(O)ccc(OC3CC(O)C(OC4CC(OC5CCC(OC6CC(O)C(OC7CC(OC8CCC(O)C(C)O8)C(O)C(C)O7)C(C)O6)C(C)O5)C(O)C(C)O4)C(C)O3)c2C1=O (some centres not stated)
inactive

Kindly provide the recorded test outcome for the following molecule: O=C(Nc1ccc(Cl)c(Cl)c1)Nc1ccc(Cl)c([N+](=O)[O-])c1
inactive

Kindly provide the recorded test outcome for the following molecule: O=c1ccc2nc(-c3ccccc3)nn(-c3ccccc3)c-2c1
inactive

====

tested on: NCI-H460 lung; test: NCI tumour cell line growth inhibition, 48 h
Hi there, I'd appreciate the recorded TGI for every entry that follows.

Reported TGI, compound CCCCc1ccc2nc(NC(=O)OC)[nH]c2c1 : ____
6.17 µM

Reported TGI, compound COCn1c(C)c(C)c2c(=O)oc(=O)[nH]c21 : ____
> 100 µM

Reported TGI, compound O=C(O)Cc1ccc(Oc2nc3ccccc3nc2-c2cccs2)cc1 : ____
> 100 µM

Reported TGI, compound O=S(=O)(c1ccccc1)n1c(C(O)c2ccncc2)cc2ccccc21 (stereo not given) : ____
> 100 µM

Reported TGI, compound CC1CN(CCO)CC(C)O1 (stereo not given) : ____
> 100 µM

Reported TGI, compound COC(=O)C1=Cc2cc3c(cc2[C@H](c2ccc4c(c2)OCO4)C1C(=O)OC)OCO3 (stereo not given in full) : ____
> 100 µM

Reported TGI, compound Cc1cc(NS(=O)(=O)c2ccc(NC(=O)c3ccc4nc5ccccc5c(Nc5ccc(S(=O)(=O)N=C(N)N)cc5)c4c3)cc2)no1 : ____
34.5 µM

Reported TGI, compound O=[N+]([O-])C(/C(Cl)=C(/Cl)N1CCOCC1)=C1\NCCO1 : ____
> 100 µM

Reported TGI, compound Cc1cc(O)c2c(c1)C[C@@H](O)C1=C2C(=O)c2c(O)ccc(OC3CC(O)C(OC4CC(OC5CCC(OC6CC(O)C(OC7CC(OC8CCC(O)C(C)O8)C(O)C(C)O7)C(C)O6)C(C)O5)C(O)C(C)O4)C(C)O3)c2C1=O (stereo not given in full) : ____
0.485 µM

Reported TGI, compound O=C(CCc1cccc(O)c1)NCCc1cccc(O)c1 : ____
> 100 µM

====

tested on: M14 melanoma; assay: NCI tumour cell line growth inhibition, 48 h
QUANTITY_KIND: TGI

Form entry - test system: M14 melanoma; read-out: TGI; molecule: CC1CN=C(Nc2cccc(C(F)(F)F)c2)S1 (centres undefined)
> 100 µM

Form entry - test system: M14 melanoma; read-out: TGI; molecule: Cc1c2c(n3c(nc4ccccc43)c1C#N)SCC2
> 10 µM

Form entry - test system: M14 melanoma; read-out: TGI; molecule: CC(C)CC(=O)NC(Nc1ccc(S(=O)(=O)Nc2ncccn2)cc1)(C(F)(F)F)C(F)(F)F
> 100 µM

Form entry - test system: M14 melanoma; read-out: TGI; molecule: Nc1nc2nc3c(nc2c(=O)[nH]1)CN(c1ccc(C(=O)O)cc1)C3=O
> 100 µM

Form entry - test system: M14 melanoma; read-out: TGI; molecule: COc1ccc(C(=O)c2cc3c(N)c(C(=O)Nc4cccc(Cl)c4)sc3nc2C)cc1
> 33.3 µM

Form entry - test system: M14 melanoma; read-out: TGI; molecule: COc1ccc2c(c1)OCC1(O)Cc3ccccc3OC21 (centres undefined)
> 100 µM

Form entry - test system: M14 melanoma; read-out: TGI; molecule: CCNc1nc(N)c(C(=O)c2ccc(Cl)cc2)s1
> 100 µM

Form entry - test system: M14 melanoma; read-out: TGI; molecule: COC(=O)C1Cc2c([nH]c3ccccc23)[C@H](CC(C)C)N1 (some centres undefined)
> 100 µM

Form entry - test system: M14 melanoma; read-out: TGI; molecule: COc1ccc(-c2oc3ccc(C)cc3c(=O)c2O)cc1
> 100 µM

Form entry - test system: M14 melanoma; read-out: TGI; molecule: CCOC(=O)c1c(SC(=O)c2cc(OC)c(OC)c(OC)c2)n(-c2ccccc2)c(=S)n(-c2ccccc2)c1=O
> 100 µM

Form entry - test system: M14 melanoma; read-out: TGI; molecule: COC(=O)C1=C(O)C(O)=C(C(=O)OC)CC1
> 100 µM

Form entry - test system: M14 melanoma; read-out: TGI; molecule: Cc1c(CNc2ccc(Cl)c(C(=O)NC(CC(=O)O)C(=O)O)c2)ccc2nc(N)nc(N)c12 (centres undefined)
> 1000 µM

Form entry - test system: M14 melanoma; read-out: TGI; molecule: CC1(C)O[C@H](C(=O)O)[C@@H](C(=O)O)O1
> 100 µM

Form entry - test system: M14 melanoma; read-out: TGI; molecule: CC(=O)OCC1OC(n2cc(F)c(=O)[nH]c2=O)C(OC(C)=O)C1OC(C)=O (centres undefined)
> 100 µM

Cited source for all entries: PubChem BioAssay (NCI)
